measured on: Thyrotropin receptor (Homo sapiens)
method description: qHTS for antagonists of the Thyroid Stimulation Hormone Receptor: Hit Validation in Primary Screen; note: nearly all actives have a fitted effect of over 80% in size
run parameters: TSHR-expressing cells, cAMP antagonist mode; series mostly up to 58 µM
Out of some 1,300 compounds screened, about 380 (29%) were called active. About 37% were inconclusive and are not listed. Calls come from the whole dose curve; as a rule, active = well fitted inhibition curve with a large enough effect; inconclusive = small, poorly fitted or top-dose-only effect; inactive = flat fitted curve, though single readings scatter. The list shows a part of the results.
Answer with one of the outcomes class 1 = active, class 0 = inactive

Take a look at these entries with their results.
{"compound": "N#Cc1c(F)cccc1N1CCN(Cc2ccc3c(c2)OCO3)CC1", "answer label": "class 0"}
{"compound": "CCSc1ccc(C(=O)Nc2ccc(Br)cn2)cc1[N+](=O)[O-]", "answer label": "class 0"}

-- ask Just curious, what result did "COc1ccc(/C=C2\CC/C(=C\c3ccc(OC)c(OC)c3)C2=O)cc1OC" get here?
-- reply class 1

-- ask Just curious, what result did CC(Sc1nnc2c(n1)[nH]c1ccccc12)C(=O)N(C)C1CCCCC1 (centres undefined) get here?
-- reply class 1

-- ask Just curious, what result did CCCCNC(=O)CC1C(=O)N(Cc2ccccc2)C(C)c2nc3ccccc3n21 (centres undefined) get here?
-- reply class 0

-- ask Just curious, what result did "CC[n+]1c(/C=C/c2ccc(N(C)C)cc2)ccc2ccccc21" get here?
-- reply class 1

-- ask Just curious, what result did "Cc1ccc2c(c1)[nH]c1c(N3CCN(Cc4ccccc4)CC3)ncnc12" get here?
-- reply class 1

-- ask Just curious, what result did "Cc1cccc(OC2CCN(Cc3nc(CC4CC4)no3)CC2)c1" get here?
-- reply class 0

-- ask Just curious, what result did "CC(C)Nc1ncnc2c1nnn2Cc1ccccc1" get here?
-- reply class 0
